system: UACC-62 melanoma; experiment: NCI tumour cell line growth inhibition, 48 h; in the data active means GI50 below about 0.43 µM; inactive means the rest
Possible outcomes: class 1 = active, class 0 = inactive

| MOLECULE | LABEL VALUE |
| --- | --- |
| Cc1cc2cc3cc(C)c(N(C)C)cc3nc2cc1N(C)C | class 0 |
| NCCCNc1nc2ccccc2c2c(=O)c3cc(C(F)(F)F)ccc3sc12 | class 0 |
| NC(CSC(c1ccccc1)(c1ccccc1)c1ccc(Cl)cc1)C(=O)O (stereo not given) | class 1 |
| COc1cc(C(=O)/C=C/c2cc(C(=O)c3cc(OC)c(OC)c(OC)c3)ccc2OC)ccc1N | class 0 |
| CN(C)c1ccc(N=Cc2c([O-])ccc3ccccc23)cc1.[C-]#[O+].[C-]#[O+].[Ir] | class 0 |
| CS(=O)CCCCCN=C=S (stereo not given) | class 0 |
| COc1cccc(C2C(C#N)=C(N)Oc3cc(N)ccc32)c1 (stereo not given) | class 1 |
| COc1ccccc1-n1c(-c2cc(O)ccc2C)cn2c3c(=O)[nH]c(=O)n(C)c3nc12 | class 0 |
| O=[N+]([O-])c1ccc(-c2nc(-c3ccccc3)c(-c3ccccc3)n2-c2ccccc2)cc1 | class 0 |
| CCCCCC(O)C1C(=O)OC(C)C(O)/C=C/C=C/C=C/C=C\C=C(\C)C(O)CC(O)CC(O)CC(O)CC(O)CC(O)CC1O (stereo not given) | class 0 |

###

tested on: NCI-H460 lung
Outcomes: active, inactive

| STRUCTURE | LABEL VALUE |
| --- | --- |
| COc1ccc(NC(=O)n2nc(N)c3ccccc32)cc1OC | inactive |
| Cc1cc2cc3cc(C)c(N(C)C)cc3nc2cc1N(C)C | inactive |
| NC(=NCCCOc1ccc(Cl)cc1)Nc1ccc(Cl)cc1 | inactive |
| ClC1=C(Cl)C(Cl)=C(Cl)C1=C/C=C/c1ccccc1 | active |
| CCCCCCCC/C=C/CCCCCCCCC1=NCCN1CCO | inactive |

###

test system: M14 melanoma; test: NCI tumour cell line growth inhibition, 48 h
Reported TGI values for the following compounds.
VALUE KIND: TGI

| COMPOUND | RESULT |
| --- | --- |
| CN1C2(c3ccccc3)c3c(-c4ccccc4)sc(-c4ccccc4)c3C1(c1ccccc1)C1C(=O)N(c3ccccc3)C(=O)C12 (stereo not given) | > 100 µM |
| O=C(CO)CC(=O)C(=O)Nc1nc([N+](=O)[O-])cs1 | > 100 µM |
| CCc1n[nH]c(=O)n1/N=C/c1ccccc1Cl | > 100 µM |
| C[C@H](Nc1c(O)c2c(c(O)c1Cl)C(=O)C=CC2=O)C(=O)Nc1ccc([N+](=O)[O-])cc1 | 2.53 µM |
| CC(=O)c1c(C(F)(F)F)n([O-])c2ccc(Cl)cc2[n+]1=O | 5.05 µM |
| COc1cccc(NC(=S)Nn2c(C)nc3ccccc3c2=O)c1 | > 100 µM |
| CC1(C)C(=O)C(C)(C)C12SSC1(S2)C(C)(C)C(=O)C1(C)C | > 100 µM |
| CN(C)c1ccc(N=Cc2c([O-])ccc3ccccc23)cc1.[C-]#[O+].[C-]#[O+].[Ir] | 46.1 µM |
| CC(C)(C)c1nc2c(o1)C(=O)c1ccccc1C2=O | 1.97 µM |
| Cc1ccc(S(=O)(=O)NN=C2CCCCCCCCCCC2)cc1 | > 100 µM |
| O=[N+]([O-])c1ccc(C2=NOC(c3ccccc3F)N2C23CC4CC(CC(C4)C2)C3)cc1 (stereo not given) | > 100 µM |
| CC(OC(=O)NCn1cc(-c2ccccc2)nn1)c1ccccc1 (stereo not given) | 34.9 µM |
| CSc1nc(-c2cc3c(c(SC)n2)CCCCC3)cc2c1CCCCC2 | > 100 µM |
| CN(C)CCNc1ccc2c(=O)n(CCN(C)C)c(=O)n3c4ccc([N+](=O)[O-])cc4c(=O)c1c23 | 2.38 µM |
| NC(=NCCCOc1ccc(Cl)cc1)Nc1ccc(Cl)cc1 | 3.39 µM |
| COc1cc(-c2oc3c(OC)c(O)c(OC)c(O)c3c(=O)c2OC)cc(O)c1OC | > 100 µM |
| Cn1c2c(c3ccccc31)C1CCCCC1C1C(=O)NC(=O)C21 (stereo not given) | > 100 µM |
| NC(=O)C1=NNc2ccccc2C(=O)N1c1ccccc1 | > 100 µM |
| CC1=C2C(=O)[C@H]3[C@@H](CC=C4C[C@@H](O)CC[C@@]43C)[C@@H]2CC[C@]12O[C@@H]1C[C@H](C)CN[C@H]1[C@H]2C | > 60.4 µM |
| CCC(C)n1cc(C)c2c(C(=O)NCc3c(C)cc(C)[nH]c3=O)cc(Br)cc21 (stereo not given) | > 100 µM |

// provenance: PubChem BioAssay (NCI)
